Data provenance: PubChem BioAssay AID1159580

- METHOD: chemical genetic growth profiling, strain panel (AID 1159580);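 further: tested at 20 µM; growth read once vehicle control cultures reached saturation at 30 °C; 1 = growth at the plate median or of vehicle wells; lower values mean less growth of the strain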
- CONDITION: S. cerevisiae deletion strains, growth OD, locus YPL241C, strain CIN2, active compounds read low
Among all 5,500 compounds or so, about 2,000 (36%) were called active. Not shown: some 18% with an inconclusive outcome. Some of the results follow.

MOLECULE | normalized growth
O=c1[nH]c2ccccc2n1CCCN1CCN(C(c2ccccc2)c2ccccc2)CC1 | 1 (inactive)
C[C@]12CCC3c4ccc(O)cc4CCC3C1CC[C@@H]2OC(=O)CCC1CCCC1 (stereo partly drawn) | 0.979 (inactive)
CNC(=O)CSP(=S)(OC)OC | 1.02 (inactive)
O=C(O)C12CC3CC(CC(Br)(C3)C1)C2 | 0.994 (inactive)
Fc1ccc(CN(C2=NCCN2)c2c(Cl)cccc2Cl)cc1 | 0.997 (inactive)
O=S(=O)(O)c1cccc2cccc(Cl)c12 | 1.01 (inactive)
CC1=C2CCC3C(CC[C@]4(C)C(=O)CCC34)[C@@]2(C)CCC1=O (stereo partly drawn) | 0.986 (inactive)
CCCN(CCC)[C@@H]1CCc2c(F)ccc(O)c2C1 | 1 (inactive)
COc1cc(Cl)c(Cl)cc1Cl | 1.02 (inactive)
S=c1[nH]nc(-c2ccco2)n1-c1ccc2c(c1)OCCO2 | 1 (inactive)
CC(=O)Oc1ccc2c(c1)CCC1C2CC[C@@]2(C)C1CC[C@@H]2OC(C)=O (stereo partly drawn) | 0.972 (inactive)
N#CC(C#N)=CNc1cc(C(F)(F)F)ccc1N1CCCCC1 | 0.996 (inactive)
CCOC(=O)C1=C(C)NC(C)=C(C(=O)OC)C1c1cccc([N+](=O)[O-])c1 (stereo not drawn) | 0.977 (inactive)
Cn1cnc([N+](=O)[O-])c1Sc1ncnc2nc[nH]c12 | 1 (inactive)
COc1ccc(-c2c(C(=O)O)sc(SC)c2C#N)cc1 | 1.01 (inactive)
O=c1n(CCCN2CCN(c3cccc(Cl)c3)CC2)nc2ccccn12 | 0.997 (inactive)
CN1CCN(C(c2ccccc2)c2ccccc2)CC1 | 0.994 (inactive)
CC1(C)S[C@@H]2[C@H](NC(=O)COc3ccccc3)C(=O)N2[C@H]1C(=O)O | 1 (inactive)
CCCN(CCC)[C@@H]1CCc2cccc(O)c2C1 | 1 (inactive)
O=C(OC1CCN(CCCl)CC1)C(c1ccccc1)c1ccccc1 | 0.99 (inactive)
S=c1nc(-c2ccccc2)[nH][nH]1 | 1.01 (inactive)
O=[N+]([O-])c1ccc(C2N(Cc3ccccc3)CCC3CCCCN32)cc1 (stereo not drawn) | 0.995 (inactive)
NC(=S)c1ccc[n+]([C@@H]2O[C@@H](COP(=O)([O-])OP(=O)(O)OC[C@H]3O[C@@H](n4cnc5c(N)ncnc54)C(OP(=O)(O)O)[C@H]3O)C(O)C2O)c1 (stereo partly drawn) | 1.01 (inactive)
CC12CCC3C(CCC4=C(O)C(=O)CCC43C)C1CCC2=O (stereo not drawn) | 1.01 (inactive)
CCN(C(=S)Nc1ccc(OC)cc1)c1ccccc1 | 0.999 (inactive)
N#Cc1ccc2c(c1)N(CCCN1CCC(O)CC1)c1ccccc1S2 | 1 (inactive)
O=C(O)CNC(=O)C(CS)Cc1ccccc1 (stereo not drawn) | 1.01 (inactive)
O=c1[nH]c2ccccc2n1CCCN1CCC(n2c(=O)[nH]c3cc(Cl)ccc32)CC1 | 1.01 (inactive)
CC(=O)OC1CCC2C3CCc4cc(O)ccc4C3CCC12C (stereo not drawn) | 1.02 (inactive)
Cc1ccc(C(=O)NNC(=O)c2ccncc2)c(C)c1 | 0.998 (inactive)
OCCN1CCN(CCCN2c3ccccc3Sc3ccc(Cl)cc32)CC1 | 1.02 (inactive)
COc1ccc2c(c1)[nH]c1c(C)nccc12 | 1.01 (inactive)
COP(=S)(OC)SCn1nnc2ccccc2c1=O | 0.978 (inactive)
CN=C(N)NCCC[C@H](N)C(=O)O | 1 (inactive)
CCOC(=O)c1ncn2c1[C@@H]1CCCN1C(=O)c1cc(OC)ccc1-2 | 1.01 (inactive)
Fc1ccc(C(c2ccc(F)cc2)N2CCN(C/C=C/c3ccccc3)CC2)cc1 | 0.981 (inactive)
CCOC(=O)CC1=Nn2c(nnc2-c2cc(Cl)cc(Cl)c2)SC1 | 1.01 (inactive)
O=C(CCCN1CC=C(n2c(=O)[nH]c3ccccc32)CC1)c1ccc(F)cc1 | 0.992 (inactive)

---

- METHOD: chemical genetic growth profiling, strain panel (AID 1159580);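 further: tested at 20 µM; growth read once vehicle control cultures reached saturation at 30 °C; 1 = growth at the plate median or of vehicle wells; lower values mean less growth of the strain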
- CONDITION: S. cerevisiae deletion strains, growth OD, locus YLL026W, active compounds read low
About 2,000 (36%) of roughly 5,500 compounds were called active. Another 18% or so got no clear call; they are omitted. The list shows a part of the results.
OBSERVATION TYPE: normalized growth

COMPOUND | OBSERVED
CCCC(=O)Nc1ncnc2c1ncn2C1O[C@@H]2COP(=O)(O)O[C@H]2[C@H]1OC(=O)CCC (stereo partly drawn) | 0.985
CC1(C)C[C@@H]2C(=O)CC[C@H]3O[C@]3(C)CC[C@H]21 | 1.01
C=C(C)c1cc2cc(C(C)=O)c(O)cc2o1 | 0.977
OCCN1CCN(CCCN2c3ccccc3Sc3ccc(Cl)cc32)CC1 | 0.999
CC(=O)c1ccc2c(c1)N(CCCN(C)C)c1ccccc1S2 | 0.996
CCOC(=O)C1=C(C)NC(C)=C(C(=O)OC)C1c1cccc([N+](=O)[O-])c1 (stereo not drawn) | 1
COc1cc(O)c(C)c(O)c1 | 1.01
O=c1n(CCCN2CCN(c3cccc(Cl)c3)CC2)nc2ccccn12 | 0.986
COc1cc(OC)c2c(c1Cl)OC1(C2=O)C(O)=CC(=O)CC1C (stereo not drawn) | 1.01
C[N+]1(C)C2CC[C@H]1CC(OC(=O)C(O)c1ccccc1)C2 (stereo partly drawn) | 0.999
Nc1ncnc2nc[nH]c12 | 0.994
O=c1ccc2ccc(O)c(O)c2o1 | 1
COc1cc(O)c(C(C)=O)c(OC)c1 | 0.992
CC(C)(O)CC[C@@H](O)[C@](C)(O)C1CC[C@@]2(O)C3=CC(=O)C4C[C@@H](O)[C@@H](O)C[C@]4(C)C3CC[C@]12C (stereo partly drawn) | 0.994
CC1(C)S[C@@H]2[C@H](NC(=O)COc3ccccc3)C(=O)N2[C@H]1C(=O)O | 0.983
CC(=O)N[C@@H](CC(=O)O)C(=O)O | 1.01
CCOc1nc2cccc(C(=O)OC(C)OC(=O)OC3CCCCC3)c2n1Cc1ccc(-c2ccccc2-c2nn[nH]n2)cc1 (stereo not drawn) | 1.01
Cc1ncc([N+](=O)[O-])n1CCO | 0.977
O=c1cc(-c2ccc(O)cc2)oc2cc(O[C@@H]3O[C@H](CO)[C@@H](O)[C@H](O)[C@H]3O[C@@H]3OC[C@](O)(CO)[C@H]3O)cc(O)c12 | 0.995
Cc1c(N(C)CS(=O)(=O)O)c(=O)n(-c2ccccc2)n1C | 1.01
c1coc(CNc2ncnc3nc[nH]c23)c1 | 0.999
COC(=O)C[C@H]1C(C)(C)[C@@H](OC(C)=O)[C@@H]2CC3C4CC(=O)O[C@@H](c5ccoc5)[C@]4(C)CCC3[C@@]1(C)C2=O (stereo partly drawn) | 1
O=c1c(-c2ccc3c(c2)OCO3)coc2cc(O)ccc12 | 0.989

---

- METHOD: chemical genetic growth profiling, strain panel (AID 1159580);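 further: tested at 20 µM; growth read once vehicle control cultures reached saturation at 30 °C; 1 = growth at the plate median or of vehicle wells; lower values mean less growth of the strain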
- CONDITION: S. cerevisiae deletion strains, growth OD, locus YJL164C, strain tpk1, active compounds read low
The campaign covered roughly 5,500 compounds. About 2,000 (36%) were called active. About 18% were inconclusive and are not listed. The list shows a part of the results.
Parameter: normalized growth. Scope: all listed entries.

MOLECULE | normalized growth
Cc1cccc(N(C)C(=S)Oc2ccc3ccccc3c2)c1 | 0.997
COc1c2occc2cc2ccc(=O)oc12 | 0.945
Cn1nnnc1SCC1=C(C(=O)O)N2C(=O)C(NC(=O)C(OC=O)c3ccccc3)C2SC1 (stereo not drawn) | 1.01

---

- METHOD: chemical genetic growth profiling, strain panel (AID 1159580);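 further: tested at 20 µM; growth read once vehicle control cultures reached saturation at 30 °C; 1 = growth at the plate median or of vehicle wells; lower values mean less growth of the strain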
- CONDITION: S. cerevisiae deletion strains, growth OD, locus YOL006C, strain TOP1, active compounds read low
Out of some 5,500 compounds screened, about 2,000 (36%) were called active. Another 18% or so got no clear call; they are omitted. The list shows a part of the results.
Define the label as Condition met when normalized growth is strictly less than 1 and as Condition not met in all remaining cases.

INPUT SMILES | CAT
COc1cc(O)c(C)c(O)c1 | Condition not met
O=C(O)C12CC3CC(CC(Br)(C3)C1)C2 | Condition not met
O=c1n(CCCN2CCN(c3cccc(Cl)c3)CC2)nc2ccccn12 | Condition met
COc1cc(O)c(C(C)=O)c(OC)c1 | Condition not met
COc1cc(OC)cc(OC)c1 | Condition met
